From: patent US20220259593A1

What Mean relative activity was measured for each of the following?
# Tested on: K562 CRISPRi cells
# procedure_details: Constant region variant library pooled growth screen, K562
# Format: cell-based, human
# condition_label: sgRNA constant region variants; relative to the original, un-modified constant region cr995; CRISPRi
Could you keep your reply to the number by itself?

Exercise: Can you share its Mean relative activity? I mean this molecule: cr385 (nucleic acid, listed as DNA, chemistry not fully specified) guide: GTTTAAGAGCTAAGCTGGAAACAGCATAGCAAGTTTAAATAAGGCTAGTCCGTTATCAACTTGAAAAAGTGGCCACCAGTGGTGGCT
Solution: 0.4186

Exercise: Can you share its Mean relative activity? I mean this molecule: cr599 (nucleic acid, listed as DNA, chemistry not fully specified) guide: GTTTAAGAGCTAAGCTGGAAACAGCATAGCAAGTTTAAATAAGGCTAGCCCGTTATCAACGTGAAAAAGTGGCACCGAGTCGGTGCT
Solution: 0.5112
